Source listed as PubChem BioAssay AID1578.

Assay: NOD1 signaling inhibitors, primary screen, cell-based, luminescence, uHTS (AID 1578);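 further: HEK-293T reporter cells stimulated with the NOD1 agonist gamma-tri-DAP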
Conditions: NOD1-driven NF-kB luciferase reporter cells, at 4 µM
The campaign covered roughly 290,000 compounds. About 3,000 (1%) were called active. No stated cut-off is given here; in the data, active means inhibition mostly above about 36% (no sharp cut-off); inactive means mostly below about 34%. This is one part of a sample in which actives are shown more often than they occur.
Could you please pick one outcome from this set? label 1 (active), label 0 (inactive)

These recorded examples may help you get a feel for the data.
Recorded test outcome, item CCn1nc(C)c(Br)c1Nc1ccc(Br)cc1
label 0

Recorded test outcome, item C(=N\Nc1ccccn1)/c1ccc2c(c1)OCCO2
label 0

Recorded test outcome, item Cc1cc(C)c(C)c(S(=O)(=O)NCC(=O)NCC2CCCCC2)c1C
label 0

Recorded test outcome, item CCOC(=O)C1CCN(Cc2cc(C(C)(C)C)c(O)c(C(C)(C)C)c2)CC1
label 1

Recorded test outcome, item Cc1ccc(-n2cc(-c3ccccc3)c3c(N4CCOCC4)ncnc32)cc1
label 0

Recorded test outcome, item Cc1ccc(S(=O)(=O)N2CCOCC2)cc1C(=O)Nc1c(C)n(C)n(-c2ccccc2)c1=O
label 0

Recorded test outcome, item COc1ccc2c(c1)c1ccc3c(c1n2C)C(=O)C=CC3=O
label 0

Recorded test outcome, item c1ccc(SCc2cn(C[C@H]3CC[C@@H]([C@@H]4CC[C@H](Cn5cc(CSc6ccccc6)nn5)O4)O3)nn2)cc1
label 0

Recorded test outcome, item CC(C)On1c(SCC(=O)N(C)C)nc2ccccc2c1=O
label 0

Recorded test outcome, item CCOc1ccc(C(=O)OCc2nnc(-c3cccs3)o2)cc1OC
label 0

Next:
Recorded test outcome, item Cc1cc(C)nc(-n2nc(C)c(Br)c2Nc2ccc(Br)cc2)n1
label 0

Recorded test outcome, item COCCCNc1ncnc2c1[nH]c1ccccc12
label 0

Recorded test outcome, item Nc1nc(Nc2ccc(Cl)cc2)nc(NCCO)c1[N+](=O)[O-]
label 0

Recorded test outcome, item CCc1nnc(NC(=O)c2ccc(S(=O)(=O)N3CCc4ccccc4C3)cc2)s1
label 0

Recorded test outcome, item O=C(CSc1nc(-c2ccccc2)c(-c2ccccc2)[nH]1)Nc1ccc2c(c1)OCO2
label 0

Recorded test outcome, item C(=N\Nc1ccc2ccccc2n1)/c1ccc2c(c1)OCCO2
label 1

Recorded test outcome, item CC(C)(C)c1cc(CN2CCC(O)CC2)cc(C(C)(C)C)c1O
label 0

Recorded test outcome, item CCCCOCCCNC1=NCCCCC1
label 0

Recorded test outcome, item C(=N\Nc1nc2ccccc2[nH]1)/c1ccc2c(c1)OCCO2
label 0

Recorded test outcome, item O=C(COc1ccccc1)Nc1ccc(Cl)c(-c2nc3ncccc3o2)c1
label 0

Recorded test outcome, item Cc1nn(C)c(Nc2ccc(Br)cc2)c1Br
label 1

Recorded test outcome, item O=C(/C=C/c1ccccc1)NC1CCS(=O)(=O)C1 (stereo not drawn)
label 0

Recorded test outcome, item COc1ccc2[nH]c(C)cc(=O)c2c1
label 0

---

Test: NOD1 signaling inhibitors, primary screen, cell-based, luminescence, uHTS (AID 1578);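 further: HEK-293T reporter cells stimulated with the NOD1 agonist gamma-tri-DAP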
Conditions: NOD1-driven NF-kB luciferase reporter cells, at 4 µM
Among all 290,000 compounds or so, about 3,000 (1%) were called active. Cut-off read from the data, not from the text of the source: active = inhibition mostly above about 36% (no sharp cut-off); inactive = mostly below about 34%. The sample holds actives, similar compounds and a random draw of the others, so the mix is not that of the screen.
Could you please pick one outcome from this set? active, inactive

These recorded examples may help you get a feel for the data.
Recorded test outcome, item O=C(COC(=O)c1cc(-c2ccc(Cl)s2)nc2ccccc12)NCc1ccco1
inactive

Recorded test outcome, item O=C(Cc1ccccc1)c1ccc2c(c1)OCCO2
inactive

Recorded test outcome, item CCOc1ccc(/C(O)=C2/C(=O)C(=O)N(c3ncccn3)C2c2ccc(C)cc2)cc1 (stereo unspecified)
inactive

Next:
Recorded test outcome, item O=C(CCCc1ccccc1)c1ccc2c(c1)OCCO2
active

Recorded test outcome, item CCCC(=O)c1ccc2c(c1)OCCO2
inactive

Recorded test outcome, item CCOCC(=O)Nc1c(C(=O)N2CCN(c3ncccn3)CC2)oc2ccccc12
inactive

---

Assay: NOD1 signaling inhibitors, primary screen, cell-based, luminescence, uHTS (AID 1578);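 further: HEK-293T reporter cells stimulated with the NOD1 agonist gamma-tri-DAP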
Conditions: NOD1-driven NF-kB luciferase reporter cells, at 4 µM, active compounds read high
About 3,000 (1%) of roughly 290,000 compounds were called active. The list comes from a sample in which actives are over-represented; it also holds close analogues and randomly drawn compounds.
Lab note: compare inhibition against -10%. Equal or greater, write yes. Smaller, write no.

These recorded examples may help you get a feel for the data.
Hello, I need to know if CC(=O)C(C)Sc1nnc(-c2ccccc2F)n1C1CC1 (stereo not given) has measured inhibition not below -10%. Thanks!
no

Hello, I need to know if COCCN1C(=O)C(CC(=O)Nc2ccc(C(C)=O)cc2)SC1=Nc1ccccc1 (stereo not given) has measured inhibition not below -10%. Thanks!
yes

Hello, I need to know if Cc1ccccc1CC(=O)N1CC(C)OC(C)C1 (stereo not given) has measured inhibition not below -10%. Thanks!
no

Hello, I need to know if O=C(CN1C(=O)CC(c2ccccc2)Sc2ccccc21)NCC1CCCO1 (stereo not given) has measured inhibition not below -10%. Thanks!
no

Hello, I need to know if CCOC(=O)C(c1ccccc1)C(Nc1ccc(F)cc1)c1ccccn1 (stereo not given) has measured inhibition not below -10%. Thanks!
yes

Hello, I need to know if FC(F)(F)c1cnc(Sc2nnc(-c3cccs3)n2CC2CCCO2)c(Cl)c1 (stereo not given) has measured inhibition not below -10%. Thanks!
no

Hello, I need to know if O=C(COc1ccccc1Cl)NNC(=O)c1cc(S(=O)(=O)N2CCOCC2)ccc1N1CCCC1 has measured inhibition not below -10%. Thanks!
no

Hello, I need to know if COc1ccc(-n2c(C)cc(/C=C3/SC(=O)N(CC(=O)N4CCOCC4)C3=O)c2C)cc1 has measured inhibition not below -10%. Thanks!
no

Next:
Hello, I need to know if NC1=NC(=O)/C(=C/c2cn(CCC(=O)O)nc2-c2ccc(Cl)cc2)S1 has measured inhibition not below -10%. Thanks!
no

Hello, I need to know if CC1(C)CC(N2CCN(c3ccccc3)CC2)=CC(=[N+]2CCCC2)C1 has measured inhibition not below -10%. Thanks!
yes

---

This section presents compounds with their documented inhibition values.
Experiment: NOD1 signaling inhibitors, primary screen, cell-based, luminescence, uHTS (AID 1578);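 further: HEK-293T reporter cells stimulated with the NOD1 agonist gamma-tri-DAP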
Details: NOD1-driven NF-kB luciferase reporter cells, at 4 µM, active compounds read high
Out of some 290,000 compounds screened, about 3,000 (1%) were called active. Shown is part of a subset that was picked to be rich in actives.
Your answer is read as %, so omit the unit and give the number.

Worked cases, answers included:
Report inhibition for CCc1c(C)nc2ncnn2c1NCCc1ccc(Cl)cc1 please.
57.5

Report inhibition for CCCc1nc(SCC(=O)N2CCN(c3ccccc3)CC2)c2c(=O)n(C)c(=O)n(C)c2n1 please.
9

Report inhibition for C/C(=N\O)c1ncc(C(F)(F)F)cc1Cl please.
-23.5

The record that follows has no inhibition shown yet.
Report inhibition for COc1ccccc1N(C(=O)c1snc(C(N)=O)c1N)C(C(=O)NC1CCCC1)c1ccc(N(C)C)cc1 (stereo unspecified) please.
-3

---

This section presents compounds with their documented inhibition values.
Assay: NOD1 signaling inhibitors, primary screen, cell-based, luminescence, uHTS (AID 1578);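 further: HEK-293T reporter cells stimulated with the NOD1 agonist gamma-tri-DAP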
Conditions: NOD1-driven NF-kB luciferase reporter cells, at 4 µM, active compounds read high
Screen size: about 290,000 compounds; about 3,000 (1%) were called active. The full list was thinned out, with actives kept by preference.

Worked cases, answers included:
Report inhibition for NC(=O)c1c(NC(=O)c2ccccc2Cl)sc2c1CCC2 please.
-50% (inactive)

Report inhibition for O=C(Nc1sc2c(c1C(=O)O)CCC2)c1ccccc1 please.
26.9% (inactive)

Report inhibition for COCCNC(=O)COc1ccc(Oc2ccccc2)cc1 please.
-26.6% (inactive)

Report inhibition for O=C(Nc1sc2c(c1C(=O)O)CCC2)c1ccccc1Cl please.
17.5% (inactive)

Report inhibition for O=C(Nc1sc2c(c1C(=O)O)CCCCC2)c1ccccc1 please.
43.3% (inactive)

The record that follows has no inhibition shown yet.
Report inhibition for CNC(=O)c1c(NC(=O)c2cccc(N3C(=O)CCC3=O)c2)sc2c1CCC2 please.
5.2% (inactive)

---

Assay: NOD1 signaling inhibitors, primary screen, cell-based, luminescence, uHTS (AID 1578);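 further: HEK-293T reporter cells stimulated with the NOD1 agonist gamma-tri-DAP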
Conditions: NOD1-driven NF-kB luciferase reporter cells, at 4 µM, active compounds read high
The whole screen tested about 290,000 compounds, of which about 3,000 (1%) were called active. This is one part of a sample in which actives are shown more often than they occur.
measured_parameter: inhibition (%)
Your answer is read as %, so omit the unit and give the number.

Worked cases, answers included:
Report inhibition for COCCn1c(C)cc(C(=O)COC(=O)c2ccc[nH]c2=O)c1C please.
50.7

Report inhibition for O=C(N/N=C/C(Cl)=C/c1ccc([N+](=O)[O-])cc1)C(=O)Nc1cccc(C(=O)O)c1 please.
-14.1

Report inhibition for CCN(CC)C(=S)Sc1c(-c2ccccc2)c2cc(Cl)ccc2[nH]c1=O please.
78.1

Next:
Report inhibition for Cc1ccc(NC(=O)C(=Cc2ccc(C(=O)O)cc2)C(=O)Nc2ccc(C)cc2C)c(C)c1 please.
9.9

Report inhibition for CCN(CC)S(=O)(=O)c1ccc(OC)c(NC(=O)CSc2cc(C)ccc2C)c1 please.
-19.1

Report inhibition for Cc1cc(C(=O)CN2C(=O)c3ccccc3C2=O)c(C)n1Cc1cccs1 please.
13.2

Report inhibition for Cc1ccc(C(=O)Nc2cccc(C(=O)NCc3ccccc3)c2)cc1 please.
-41.3

Report inhibition for O=[N+]([O-])c1cccc(Nc2nc(Cl)nc(Cl)n2)c1 please.
14.4
